- TEST_SYSTEM: T1, biotinylated synthetic human Amyloid beta 1-42 peptide (human, UniProt P05067 672-713, biotinylated (N-terminal biotin in Example 4))
- T1 construct: domain: Amyloid beta 1-42 peptide; Numbers 1-42 count on the Amyloid beta peptide, not on APP; also called biotinylated human Amyloid beta 1-42; N-terminal biotin Abeta 1-42
- T1 sequence (P05067 672-713 limits assumed): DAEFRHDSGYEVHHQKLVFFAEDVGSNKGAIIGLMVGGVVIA
- EXPERIMENT: HTRF epitope competition; purified scFv titrated; competitor Abet0144-GL IgG1-TM; range of repeats
Listed binders paired with reported IC50

// below: answered binders
Abet0321b scFv (scFv, V domains shown, not shown: small tags and cut ends, Purified scFv expressed in E. coli) VH: EVQLLESGGGLVQPGGSLRLSCAASAYHSNHDPMWWVRQAPGKGLEWVSVIGSSGGTTAYADSVKGRFTISRDNSKNTLYLQMNSLRAEDTAVYYCAREWMDHSRPYYYYGMDVWGQGTLVTVSS VL: SYELTQPPSVSVSPGQTASITCSGHNLEDKFASWYQQKPGQSPVLIIYRDDKRPSGIPERFSASNSGHTATLTISGTQATDEADYYCSSQDTVTRVFGGGTKLTVL; 0.69 to 0.76 nM
Abet0369 scFv (scFv, V domains shown, not shown: small tags and cut ends, Purified scFv expressed in E. coli) VH: EVQLLESGGGLVQPGGSLRLSCAASSFQISKNTMWWVRRAPGKGLEWVSVIGKDETRFNYADSVKGRFTISRDNSKNTLYLQMNSLRAEDTAVYYCAREWMDHSRPYYYYGMDVWGQGTLVTVSS VL: SYGLTQPPSVSVSPGQTASITCSGRNIGDSWVAWYQQKPGQSPVLVIYRDDKRPSGIPERFSASNSGHTATLTISGTQATDEADYYCSSQDTVTRVFGGGTKLTVL; 0.3 to 0.41 nM
Abet0322b scFv (scFv, V domains shown, not shown: small tags and cut ends, Purified scFv expressed in E. coli) VH: EVQLLESGGGLVQPGGSLRLSCAASNEEFQYNPMWWVRQAPGKGLEWVSVIGSSGGATVYADAVKGRFTISRDNSENTLYLQMNSLRAEDTAVYYCAREWMDHSRPYYYYGMDVWGQGTLVTVSS VL: SYELTQPPSVSVSPGQTASITCSGHNLGDKFASWYQQKPGQSPVLVIYRDDKRPSEIPERFSASNSGHTATLTISGTQATDEADYYCSSQDTVTRVFGGGTKLTVL; 0.43 to 0.98 nM
Abet0372 scFv (scFv, V domains shown, not shown: small tags and cut ends, Purified scFv expressed in E. coli) VH: EVQLLESGGGLVQPGGSLRLSCAASSDMFNIETMWWVRQAPGKGLEWVSVIGKGMNNVSYADSVKGRFTISRDNSKNTLYLQMNSLRAEDTAVYYCAREWMDHSRPYYYYGMDVWGQGTLVTVSS VL: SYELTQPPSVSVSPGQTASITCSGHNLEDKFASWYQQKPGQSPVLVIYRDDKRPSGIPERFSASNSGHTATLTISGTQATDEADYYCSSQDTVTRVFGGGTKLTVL; 0.26 to 0.49 nM

Suppose we examine the binder Abet0323b scFv (scFv, V domains shown, not shown: small tags and cut ends, Purified scFv expressed in E. coli) VH: EVQLLESGGGLVQPGGSLRLSCAASTSTFQEDTMWWVRQAPGKGLEWVSVIGPNPKNNAYADSVKGRFTISRDNSKNTLYLQMNSLRAEDTAVYYCAREWMDHSRPYYYYGMDVWGQGTLVTVSS VL: SYELTQPPSVSVSPGQTASITCSGHNLEDKFASWYQQKPGQSPVLVIYRDDKRPSGVPERFSASNSGHTATLTISGTQATDEADYYCSSQDTVTRVFGGGTKLIVL ; what IC50 value has been reported?
0.57 to 0.76 nM

Suppose we examine the binder Abet0374 scFv (scFv, V domains shown, not shown: small tags and cut ends, Purified scFv expressed in E. coli) VH: EVQLLESGGGLVQPGGSLRLSCAASGFQFKDTPMWWVRQAPGKGLEWVSVIGDQNHKKAYADSVKGRFTISRDNSKNTLYLQMNSLRAEDTAVYYCAREWMDHSRPYYYYGMDAWGQGTLVTVSS VL: SYELTQPPSVSVTPGQTASITCSGHNLGGKFASWYQQKPGQSPVLVIYRDDKRPSGIPERFSASNFGHTATLTISGTQATDEADYYCSSQDTVTRVFGGGTKLTVL ; what IC50 value has been reported?
0.41 to 0.43 nM

Suppose we examine the binder Abet0319 scFv (scFv, V domains shown, not shown: small tags and cut ends, Purified scFv expressed in E. coli) VH: EVQLLESGGGLVQPGGSLRLSCAASVSVYNKDTMWWVRQAPGKGLEWVSVIGSSGGTTVYADSVKGRFTISRDNSKNTLYLQMNSLRAEDTAVYYCAREWMDHSRPYYYYGMDVWGQGTLVTVSS VL: SYELTQPPSVSVSPGQTASITCSGHNIMDKWVSWYQQKPGRSPALVIYRDDKRPSGIPERFSASNSGHTATLTISGTQATDEADYYCSSQDTVTRVFGGGTKLTVL ; what IC50 value has been reported?
0.52 to 0.76 nM

Suppose we examine the binder Abet0380 scFv (scFv, V domains shown, not shown: small tags and cut ends, Purified scFv expressed in E. coli) VH: EVQLLESGGGLVQPGGSLRLSCAASMGNFNYQTMWWVRQAPGRGLEWVSVIGKTNENIAYADSVKGRFTISRDNSKNTLYLQMNSLRAEDTAVYYCAREWMDHSRPYYYYGMDVWGQGTLVTVSS VL: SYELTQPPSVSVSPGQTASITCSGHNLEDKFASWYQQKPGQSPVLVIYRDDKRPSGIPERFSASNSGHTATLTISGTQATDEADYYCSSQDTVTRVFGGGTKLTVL ; what IC50 value has been reported?
0.38 to 0.47 nM

Suppose we examine the binder Abet0377 scFv (scFv, V domains shown, not shown: small tags and cut ends, Purified scFv expressed in E. coli) VH: EVQLLESGGGLVQPGGSLRLSCAASGFNFNEQTLWWVRQAPGKGLEWVSVIGVGTKNIAYADTVKGRFTISRDNSKNTLYLQMNSLRAEDTAVYYCAREWMDHSRPYYYYGMDVWGQGTLVTVSS VL: SYELTQPPSVSVSPGQTASITCSGHNTEHKWISWYQQKPGQSPVLVIYRDDKRPSGIPERFSATNSGHTATLTISGTQATDEADYYCSSQDTVTRVFGGGTKLTVL ; what IC50 value has been reported?
0.29 to 0.35 nM

Suppose we examine the binder Abet0144-GL scFv (scFv, V domains shown, not shown: small tags and cut ends, Purified scFv expressed in E. coli; also called parent clone) VH: EVQLLESGGGLVQPGGSLRLSCAASGFTFSVYTMWWVRQAPGKGLEWVSVIGSSGGTTVYADSVKGRFTISRDNSKNTLYLQMNSLRAEDTAVYYCAREWMDHSRPYYYYGMDVWGQGTLVTVSS VL: SYELTQPPSVSVSPGQTASITCSGHNLEDKFASWYQQKPGQSPVLVIYRDDKRPSGIPERFSASNSGHTATLTISGTQAMDEADYYCQAQDSTTRVFGGGTKLTVL ; what IC50 value has been reported?
8.1 to 18 nM

Suppose we examine the binder Abet0371 scFv (scFv, V domains shown, not shown: small tags and cut ends, Purified scFv expressed in E. coli) VH: EVQLSESGGGLVQPGGSLRLSCAASHDAFPFDTMWWVRQAPGKGLEWVSVIGSSGGTTVYADSVKGRFTVSRDNSKNTLYLQMNSLRAEDTAVYYCAREWMDHSRPYYYYGMDVWGQGTLVTVSS VL: SYELTQPPSVSVSPGQTASITCSGHNISSSWVSWYQQKPGQSPVLVIYRDDKRPSGIPERFSASNSGHTATLTISGTQATDEADYYCSSQDTVTRVFGGGTKLTVL ; what IC50 value has been reported?
0.46 to 0.53 nM
